Biological target: Tau P301L (Homo sapiens, UniProt P10636, P618L)
Construct: expressed in transfected cells
Sequence (P10636 1-441 isoform P10636-8 P301L): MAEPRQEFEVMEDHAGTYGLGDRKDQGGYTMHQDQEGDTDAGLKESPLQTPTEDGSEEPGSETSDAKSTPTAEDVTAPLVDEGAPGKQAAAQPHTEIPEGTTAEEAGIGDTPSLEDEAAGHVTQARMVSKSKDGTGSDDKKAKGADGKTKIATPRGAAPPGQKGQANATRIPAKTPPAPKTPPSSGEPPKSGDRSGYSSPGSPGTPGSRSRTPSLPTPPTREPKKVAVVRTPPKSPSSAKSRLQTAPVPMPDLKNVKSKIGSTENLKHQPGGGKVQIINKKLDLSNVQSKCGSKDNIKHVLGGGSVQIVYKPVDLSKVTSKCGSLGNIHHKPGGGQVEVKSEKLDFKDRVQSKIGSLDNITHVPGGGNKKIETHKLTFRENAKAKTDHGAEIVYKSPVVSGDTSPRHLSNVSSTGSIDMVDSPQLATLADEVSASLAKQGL
Experiment: In vitro tau degradation assay in CHOK1 Tau P301L cells (sarkosyl insoluble tau, WES)
Assay type: cell-based
Details: CHO-K1; CHOK1 Tau P301L cells; remaining tau in sarkosyl insoluble pellet; 48 hours with test compound at 1 μM, doxycycline removed for last 24 hours; relative to DMSO doxycycline control; read-out: Tau Protein Degradation effect at 1 μM
# maps each entry to its remaining activity at 1 µM

Enquiry: Which value of remaining activity at 1 µM has been reported for O=C1CCC(N2C(=O)c3cc(F)c(N4CCC(CN5CC6(C5)CN(C[C@H]5C[C@H](Oc7ccc(-c8ccc9c%10cnccc%10n(C(F)F)c9c8)cn7)C5)C6)CC4)cc3C2=O)C(=O)N1 (some centres unmarked) in the records?
Return: < 50%

Enquiry: Same lookup for O=C1CCC(N2C(=O)c3ccc(N4CCC(OC5CCN(C[C@H]6C[C@H](Oc7ncc(-c8ccc9c%10cnccc%10n(C(F)F)c9c8)cc7F)C6)CC5)CC4)cc3C2=O)C(=O)N1 (some centres unmarked) , please.
Return: < 50%

Enquiry: Same lookup for O=C1CCC(N2C(=O)c3ccc(OCCC4CCN(C[C@H]5C[C@H](Oc6ncc(-c7ccc8c9cnccc9n(C(F)F)c8c7)cc6F)C5)CC4)cc3C2=O)C(=O)N1 (some centres unmarked) , please.
Return: > 50%

Enquiry: Same lookup for O=C1CCC(N2Cc3nc(N4CCN(CCC5CCN(c6ncc(-c7ccc8c9cnccc9n(C(F)F)c8c7)cc6F)CC5)CC4)ccc3C2=O)C(=O)N1 (centres unmarked) , please.
Return: > 50%

Enquiry: Same lookup for O=C1CCC(N2C(=O)c3cc(F)c(N4CCN(CC5CCN(c6ncc(-c7ccc8c9cnccc9n(C(F)F)c8c7)cc6F)CC5)CC4)cc3C2=O)C(=O)N1 (centres unmarked) , please.
Return: > 50%

----------
# maps each entry to its remaining activity at 1 µM
Target: Tau P301L (Homo sapiens, UniProt P10636, P618L)
Construct: expressed in transfected cells
Assay: In vitro tau degradation assay in CHOK1 Tau P301L cells (sarkosyl insoluble tau, WES)
Format: cell-based
Settings: CHO-K1; remaining tau protein in sarkosyl insoluble pellet; CHOK1 Tau P301L cells treated 48 hours with test compound at 1 μM, doxycycline removed for the last 24 hours; relative to DMSO doxycycline control; read-out: Tau Protein Degradation effect at 1 μM

Illustrative cases are given below, each with its answer.
Nc1cccc2cnc(-n3ccc4cc(N5CCC(CCN6CCN(c7ccc8c(c7)C(=O)N(C7CCC(=O)NC7=O)C8=O)CC6)CC5)ncc43)cc12 (centres unmarked) = > 50%
Cn1c2ccncc2c2ccc(-c3ccc(N4CCC(CCN5CCN(c6ccc7c(c6)C(=O)N(C6CCC(=O)NC6=O)C7=O)CC5)CC4)nc3)cc21 (centres unmarked) = < 50%
O=C1CCC(N2C(=O)c3ccc(N4CCN(CCC5CCN(c6ccc(-c7ccc8c(c7)[nH]c7ccncc78)cn6)CC5)CC4)cc3C2=O)C(=O)N1 (centres unmarked) = < 50%
Cc1ncsc1-c1ccc([C@H](C)NC(=O)[C@@H]2C[C@@H](O)CN2C(=O)[C@@H](c2cc(OCCN3CCC(OC4CN(c5ccc(-c6ccc7c8cnccc8n(C)c7c6)cn5)C4)CC3)no2)C(C)C)cc1 (single isomer, unassigned) = > 50%

Enquiry: Which value of remaining activity at 1 µM has been reported for Cn1c2ccncc2c2ccc(-c3ccc(O[C@H]4C[C@H](OC5CCN(CCCN6CC(Oc7ccc8c(c7)C(=O)N(C7CCC(=O)NC7=O)C8=O)C6)CC5)C4)nc3)cc21 (some centres unmarked) in the records?
Return: < 50%
